Target: T1, wild-type rat apelin receptor tagged at its C-terminus with EGFP (rat, UniProt Q9JHG3 1-377)
T1 construct: whole, on cells; Used as crude membrane preparations from CHO cells stably expressing the receptor; also called wild-type rat apelin receptor-EGFP; not shown: EGFP tag at the C-terminus
T1 sequence (looked up): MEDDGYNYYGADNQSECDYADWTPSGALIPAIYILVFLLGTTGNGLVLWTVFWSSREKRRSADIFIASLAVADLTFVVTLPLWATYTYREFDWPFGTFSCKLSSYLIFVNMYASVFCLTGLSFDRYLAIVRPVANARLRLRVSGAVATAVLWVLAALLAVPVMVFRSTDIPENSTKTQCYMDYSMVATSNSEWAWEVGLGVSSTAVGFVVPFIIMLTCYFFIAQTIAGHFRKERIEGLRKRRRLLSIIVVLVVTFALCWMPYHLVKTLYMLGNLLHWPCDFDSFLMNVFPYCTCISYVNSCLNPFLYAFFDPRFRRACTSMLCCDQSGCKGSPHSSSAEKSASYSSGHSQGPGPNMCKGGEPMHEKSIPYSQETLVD
Test: displacement of 0.2 nM [125I]-pyr-1-apelin-13; membranes of CHO cells expressing rat apelin receptor-EGFP
Where no end group is shown, it is not given here. [ ]: non-standard residue; d: D form. Phe(4-Br) = N[C@@H](Cc1ccc(Br)cc1)C(=O)O; Nle = CCCC[C@H](N)C(=O)O; Aib = CC(C)(N)C(=O)O
Recorded Ki, one value per entry.
metric: Ki (nM)

[
  {
    "binder": "XRPRLSHKGPXXX (pGlu at 1; Nle at 11; Aib at 12; paraBrPhe at 13, Synthetic ACE2-resistant analogue; also called parent peptide 4; none (A2)) [pyr-1-apelin-13 A2 (4)]",
    "metric": "Ki",
    "units.of.measure": "nM",
    "endpoint.result": 2
  },
  {
    "binder": "KFRRQRPRLSHKGPMPF (Native isoform; apelin residues 61-77; also called native apelin-17; native isoform 2) [apelin-17 (2)]",
    "metric": "Ki",
    "units.of.measure": "nM",
    "endpoint.result": 0.053
  },
  {
    "binder": "KFRRQRPRLSHKGP[Nle][Aib][Phe(4-Br)] (Synthetic ACE2-resistant analogue; also called parent peptide 5) [apelin-17 A2 (5)]",
    "metric": "Ki",
    "units.of.measure": "nM",
    "endpoint.result": 0.19
  },
  {
    "binder": "KFRRQRPR[dL]SHKGP[Nle][Aib][Phe(4-Br)] [D-Leu9-apelin-17 A2 (9)]",
    "metric": "Ki",
    "units.of.measure": "nM",
    "endpoint.result": 0.14
  }
]
